# SUBJECT OF TEST: recombinant CaMKIIδ (Homo sapiens (Human))
# PROCEDURE SUMMARY: CaMKIIδ biochemical assay (HTRF)
# ASSAY SETUP: 10 pM CaMKIIδ, 110 nM calmodulin, 12 μM ATP, 1 hour; read-out: CAMKIID-HTRF-384V2 (IC50 - nM)
Consider the following compounds and their measured IC50 readings.

COMPOUND | IC50 [nM]
O=C(c1ccnc(-c2cnn3ccc(-c4ccccc4)nc23)c1)N1CCCC12CCCNC2 (stereo not shown) | 216
CCOC1CN(c2cc(C(=O)NC[C@H](C)N(CC)CC)cc(-c3cnn4ccc(-c5cccs5)nc34)n2)C1 | 0.17
CC[C@@H](CNC(=O)c1cc(-c2cnn3ccc(-c4cccs4)nc23)nc(N2CC[C@H]2C(=O)NC)c1)N(CC)CC (single isomer, unassigned) [Example 356A] | 0.31
CCN[C@@H](C)CNC(=O)c1cc(-c2cnn3ccc(-c4cccs4)nc23)nc(N2CC[C@H]2C(=O)NC)c1 | 10.6
CCN(CC)[C@@H](C)CNC(=O)c1cc(-c2cnn3ccc(-c4cccs4)nc23)nc(N2CC[C@H]2C(=O)NCC#N)c1 | 0.58
COC1CN(c2cc(C(=O)N3C4CC[C@@H]3CCNC4)cc(-c3cnn4ccc(-c5ccccc5)nc34)n2)C1 (stereo in doubt) | 44.6
CCN(CC)[C@@H](C)CNC(=O)c1cc(NCCN2CCOCC2)nc(-c2cnn3ccc(-c4cccs4)nc23)c1 | 0.14

###

Consider the following compounds and their measured IC50 readings.
# SUBJECT OF TEST: recombinant CaMKIIδ (Homo sapiens (Human))
# PROCEDURE SUMMARY: CaMKIIδ biochemical assay (HTRF)
# ASSAY SETUP: 10 pM CaMKIIδ, 110 nM calmodulin, 12 μM ATP, 1 hour; read-out: CAMKIID-HTRF-384V2 (IC50 - nM)

MOLECULE | IC50
COC1CN(c2cc(C(=O)NC[C@H](C)N)cc(-c3cnn4ccc(-c5cccs5)nc34)n2)C1 | 18.8 nM
COC1CN(c2cc(C(=O)NC[C@@H]3CCCN3C)cc(-c3cnn4ccc(-c5cccs5)nc34)n2)C1 | 284 nM
C[C@@H](CNC(=O)c1ccnc(-c2cnn3ccc(-c4cccs4)nc23)c1)NCC1CC1 | 10.7 nM
CCN(CC)[C@@H](C)CNC(=O)c1cc(-c2cnn3ccc(-c4cccs4)nc23)nc(N2CC[C@H]2C(=O)NCC(F)(F)F)c1 | 1.37 nM

###

# SUBJECT OF TEST: recombinant CaMKIIδ (Homo sapiens (Human), UniProt Q13557)
# PROCEDURE SUMMARY: CaMKIIδ biochemical assay (HTRF)
# ASSAY SETUP: 10 pM CaMKIIδ, 110 nM calmodulin, 12 μM ATP, 1 hour; read-out: CAMKIID-HTRF-384V2 (IC50 - nM)

MOLECULE | IC50 [nM]
CCN(CC)[C@@H](C)CNC(=O)c1cc(-c2cnn3ccc(-c4cccs4)nc23)nc(N2CC(C)(OC)C2)c1 [Example 227] | 0.07
CCN[C@H](CNC(=O)c1ccnc(-c2cnn3ccc(-c4ccccc4)nc23)c1)COc1ncccn1 [Example 69] | 91.1
CCN(CC)[C@@H](C)CNC(=O)c1cc(-c2cnn3ccc(-c4cccs4)nc23)nc(N2C[C@@H]3C[C@H]2CO3)c1 [Example 253] | 0.38
CCN[C@@H](C)CNC(=O)c1ccnc(-c2cnn3ccc(-c4ccccc4)nc23)c1 [Example 42] | 14.4
O=C(NC[C@]1(CC2CC2)CCCN1)c1ccnc(-c2cnn3ccc(-c4cccs4)nc23)c1 [Example 18] | 6.51
CCN(CC)[C@@H](C)CNC(=O)c1cc(-c2cnn3ccc(-c4cccs4)nc23)nc(N2CC[C@H]2C(=O)N(C)OC)c1 [Example 287] | 0.33
O=C(c1cc(-c2cnn3ccc(-c4cccs4)nc23)nc(N2CCN(C3COC3)CC2)c1)N1CC2CCC(C1)NC2 (stereo not shown) [Example 324] | 3.59
